# measurement-target: purified catalytic domain of recombinant human TACE (rhTACEc) (Homo sapiens, UniProt P78536, N452Q/S266A)
# Construct: 6xHis (C); made in house; host or cells: baculovirus/Hi5 insect cells
# Sequence (P78536 215-477 S266A/N452Q): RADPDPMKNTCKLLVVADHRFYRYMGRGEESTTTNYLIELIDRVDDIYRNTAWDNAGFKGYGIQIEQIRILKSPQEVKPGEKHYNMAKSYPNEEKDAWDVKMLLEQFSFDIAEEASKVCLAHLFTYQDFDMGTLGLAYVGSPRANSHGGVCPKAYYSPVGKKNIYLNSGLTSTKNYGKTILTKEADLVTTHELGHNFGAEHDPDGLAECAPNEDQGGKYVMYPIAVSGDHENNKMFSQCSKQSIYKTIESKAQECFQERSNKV
# test: TACE kinetic assay: cleavage of internally quenched peptide substrate TNF-FRET 2 (Ki)
# Format: biochemical
# experimental-setup: TNF-FRET 2 substrate, read-out: Ki
readout-label: Ki (nM)

>  <molecule>
COc1ccc2c(c1)C(=O)N(C[C@@]1(c3cc4cc(-c5cc(N)n[nH]5)ccc4o3)NC(=O)NC1=O)C2

>  <reading-unit>
nM

>  <assay-result>
0.523

$$$$
>  <molecule>
COc1ccc2c(c1)C(=O)N(C[C@@]1(c3cc4cc(-c5ccc(N(C)C)nc5)ccc4o3)NC(=O)NC1=O)C2 [Compound 2197]

>  <reading-unit>
nM

>  <assay-result>
0.849

$$$$
>  <molecule>
COc1ccc2c(c1)C(=O)N(C[C@@]1(c3cc4nc(Nc5ccc(-c6cn[nH]c6)cn5)ccc4o3)NC(=O)NC1=O)C2

>  <reading-unit>
nM

>  <assay-result>
1.91

$$$$
>  <molecule>
COc1ccc2c(c1)C(=O)N(C[C@@]1(c3cc4cc(-c5cc(O)nn5C)cnc4o3)NC(=O)NC1=O)C2

>  <reading-unit>
nM

>  <assay-result>
0.562

$$$$

----------
# measurement-target: purified catalytic domain of recombinant human TACE (rhTACEc) (Homo sapiens, UniProt P78536, N452Q/S266A)
# Construct: 6xHis (C); made in house; host or cells: baculovirus/Hi5 insect cells
# test: TACE kinetic assay: cleavage of internally quenched peptide substrate TNF-FRET 2 (Ki)
# Format: biochemical
# experimental-setup: TNF-FRET 2 substrate, read-out: Ki
Binning rule for recorded Ki: lower band (below 0.5 nM), central band (0.5 nM to below 0.8 nM), upper band (0.8 nM or more)

>  <molecule>
COc1ccc2c(c1)C(=O)N(C[C@@]1(c3cc4cc(-c5cccnc5)cnc4o3)NC(=O)NC1=O)C2 [Compound 2254]

>  <discrete-label>
central band

$$$$
>  <molecule>
CNC(=O)c1ccc2oc([C@]3(CN4Cc5ccc(OC)cc5C4=O)NC(=O)NC3=O)cc2n1 [Compound 1925]

>  <discrete-label>
upper band

$$$$
>  <molecule>
COc1ccc2c(c1)C(=O)N(C[C@@]1(c3cc4ncc(C(=NO)N5CCN(c6cnccn6)CC5)cc4o3)NC(=O)NC1=O)C2 [Compound 2469]

>  <discrete-label>
central band

$$$$
>  <molecule>
CCN1C[C@@H]2C[C@H]1CN2c1ccc2oc([C@]3(CN4Cc5ccc(OC)c(F)c5C4=O)NC(=O)NC3=O)cc2n1 [Compound 1292]

>  <discrete-label>
upper band

$$$$
>  <molecule>
COc1ccc2c(c1F)C(=O)N(C[C@@]1(c3cc4nc(-c5cccc(C#N)c5)ccc4o3)NC(=O)NC1=O)C2 [Compound 1504]

>  <discrete-label>
lower band

$$$$
>  <molecule>
COc1ccc2c(c1)C(=O)N(C[C@@]1(c3cc4c(C5=NCCN5)nccc4o3)NC(=O)NC1=O)C2 [Compound 2274]

>  <discrete-label>
upper band

$$$$
>  <molecule>
COc1ccc2c(c1F)C(=O)N(C[C@@]1(c3cc4ncc(F)cc4o3)NC(=O)NC1=O)C2 [Compound 1311]

>  <discrete-label>
upper band

$$$$
>  <molecule>
CC[C@@H]1CN(c2ccc3oc([C@]4(CN5Cc6ccc(OC)cc6C5=O)NC(=O)NC4=O)cc3n2)CCN1 [Compound 2124]

>  <discrete-label>
upper band

$$$$
>  <molecule>
COc1ccc2c(c1)C(=O)N(C[C@@]1(c3cc4cc(C#N)ccc4o3)NC(=O)NC1=O)C2 [Compound 2476]

>  <discrete-label>
lower band

$$$$
>  <molecule>
COc1ccc2c(c1)C(=O)N(C[C@]1(C3=CC(c4ccccc4)N(C)O3)NC(=O)NC1=O)C2 (stereo partly shown) [Compound 1526]

>  <discrete-label>
upper band

$$$$
>  <molecule>
COc1ccc2c(c1)C(=O)N(C[C@@]1(c3cc4ccc(-c5nnc(C)o5)cc4o3)NC(=O)NC1=O)C2 [Compound 2190]

>  <discrete-label>
central band

$$$$
>  <molecule>
COc1ccc2c(c1F)C(=O)N(C[C@@]1(c3ccc(-c4cccnc4)o3)NC(=O)NC1=O)C2 [Compound 314]

>  <discrete-label>
lower band

$$$$
>  <molecule>
COc1ccc2c(c1)C(=O)N(C[C@@]1(c3cc4cc(-c5ccc(N(C)C)nc5)ccc4o3)NC(=O)NC1=O)C2 [Compound 1184]

>  <discrete-label>
upper band

$$$$
>  <molecule>
COc1ccc2c(c1)C(=O)N(C[C@@]1(c3cc4ccc(N)nc4o3)NC(=O)NC1=O)C2 [Compound 2250]

>  <discrete-label>
lower band

$$$$
>  <molecule>
COc1ccc2c(c1F)C(=O)N(C[C@@]1(c3cc4cnc(C)nc4o3)NC(=O)NC1=O)C2 [Compound 304]

>  <discrete-label>
upper band

$$$$
>  <molecule>
COc1ccc2c(c1F)C(=O)N(C[C@@]1(c3cc4nc(C)c(F)cc4o3)NC(=O)NC1=O)C2 [Compound 1312]

>  <discrete-label>
central band

$$$$
>  <molecule>
COc1ccc2c(c1F)C(=O)N(C[C@@]1(c3cc4nc(Nc5cccnc5)ccc4o3)NC(=O)NC1=O)C2 [Compound 1728]

>  <discrete-label>
lower band

$$$$
>  <molecule>
COc1ccc2c(c1)C(=O)N(C[C@@]1(c3cc4c5c(ccc4o3)CNC5=O)NC(=O)NC1=O)C2 [Compound 2503]

>  <discrete-label>
lower band

$$$$
>  <molecule>
COc1ccc2c(c1F)C(=O)N(C[C@@]1(c3cc4nc(N5C[C@H](O)CC5=O)ccc4o3)NC(=O)NC1=O)C2 [Compound 1511]

>  <discrete-label>
lower band

$$$$
>  <molecule>
COc1ccc2c(c1)C(=O)N(C[C@@]1(c3cc4ncc(-c5ncc[nH]5)cc4o3)NC(=O)NC1=O)C2 [Compound 1943]

>  <discrete-label>
central band

$$$$

----------
# test: Area under the curve determinations of plasma levels in rats (rrAUC), oral 10 mg/kg
# Type: in vivo
# experimental-setup: rat, plasma 0.5-6 h, read-out: RR AUC (rapid rat AUC, rrAUC)
// reported AUC per item
readout-label: AUC

>  <compound>
COc1ccc2c(c1)C(=O)N(C[C@@]1(c3cc4c(C#N)nccc4o3)NC(=O)NC1=O)C2

>  <readout-label>
AUC

>  <assay-result>
0.485 µM·h

$$$$
>  <compound>
CCN1CCN(c2ccc3oc([C@]4(CN5Cc6ccc(OCC7CC7)c(F)c6C5=O)NC(=O)NC4=O)cc3n2)CC1

>  <readout-label>
AUC

>  <assay-result>
0.024 µM·h

$$$$
>  <compound>
COc1ccc2c(c1F)C(=O)N(C[C@@]1(c3cc4nc(-c5ccc(N)nc5)ccc4o3)NC(=O)NC1=O)C2

>  <readout-label>
AUC

>  <assay-result>
0.393 µM·h

$$$$
>  <compound>
COc1ccc2c(c1F)C(=O)N(C[C@@]1(c3cc4nc(N5CCC(OC)(OC)CC5)ccc4o3)NC(=O)NC1=O)C2

>  <readout-label>
AUC

>  <assay-result>
0.199 µM·h

$$$$
>  <compound>
COc1ccc2c(c1F)C(=O)N(C[C@@]1(c3cc4nc(N5CCNC(=O)C5)ccc4o3)NC(=O)NC1=O)C2

>  <readout-label>
AUC

>  <assay-result>
0.105 µM·h

$$$$
>  <compound>
COc1ccc2c(c1F)C(=O)N(C[C@@]1(c3cc4nc(N5CCN(C)C5=O)c(F)cc4o3)NC(=O)NC1=O)C2

>  <readout-label>
AUC

>  <assay-result>
0.226 µM·h

$$$$
>  <compound>
COc1ccc2c(c1F)C(=O)N(C[C@@]1(c3cc4ncc(C(=O)NC5CC5)cc4o3)NC(=O)NC1=O)C2

>  <readout-label>
AUC

>  <assay-result>
0.066 µM·h

$$$$
>  <compound>
COc1ccc2c(c1F)C(=O)N(C[C@@]1(c3cc4nc(Nc5cncc(F)c5)ccc4o3)NC(=O)NC1=O)C2

>  <readout-label>
AUC

>  <assay-result>
0.904 µM·h

$$$$
>  <compound>
COc1ccc2c(c1F)C(=O)N(C[C@@]1(c3cc4nc(-n5ccnc5)ccc4o3)NC(=O)NC1=O)C2

>  <readout-label>
AUC

>  <assay-result>
4.29 µM·h

$$$$
>  <compound>
CCN1CCN(c2nc3cc([C@]4(CN5Cc6ccc(OC)c(F)c6C5=O)NC(=O)NC4=O)oc3cc2F)CC1

>  <readout-label>
AUC

>  <assay-result>
0.623 µM·h

$$$$
>  <compound>
COc1ccc2c(c1F)C(=O)N(C[C@@]1(c3cc4cc([C@]5(C)NC(=O)NC5=O)c(F)cc4o3)NC(=O)NC1=O)C2 (single isomer, unassigned)

>  <readout-label>
AUC

>  <assay-result>
2.97 µM·h

$$$$
>  <compound>
COc1ccc2c(c1)C(=O)N(C[C@@]1(c3cn4ccsc4n3)NC(=O)NC1=O)C2 [Compound 502C]

>  <readout-label>
AUC

>  <assay-result>
2.22 µM·h

$$$$
>  <compound>
CCN1CCN(c2ccc3oc([C@]4(CN5Cc6ccc(OC)c(F)c6C5=O)NC(=O)NC4=O)cc3n2)CC1

>  <readout-label>
AUC

>  <assay-result>
1.2 µM·h

$$$$
>  <compound>
CCCN1CCN(c2ccc3oc([C@]4(CN5Cc6ccc(OC)c(F)c6C5=O)NC(=O)NC4=O)cc3n2)CC1

>  <readout-label>
AUC

>  <assay-result>
10.4 µM·h

$$$$
